// data source = PubChem BioAssay AID2060902

Test system: 485368-065-R3-J5-PDC spheroids with HUVEC/MSC, viability
Assay: Anticancer human tumor 485368-065-R3-J5-PDC patient-derived pancreatic carcinoma cell line growth inhibition [RAS]
Conditions: second compound 0.000949 µM; first compound 0.01 µM; stronger effect = lower value
MEASUREMENT LABEL: viability, T/C (%)
Value expressed in %; do not type the unit.

MOLECULE	UNITS OF MEASURE	OBSERVED
CCN1CCN(Cc2ccc(Nc3ncc(F)c(-c4cc(F)c5nc(C)n(C(C)C)c5c4)n3)nc2)CC1 + CCn1c(-c2cccnc2C(C)OC)c2c3cc(ccc31)N1CCOC(CC(NC(=O)C(C(C)C)N(C)C(=O)C3(F)CCN(C(=O)C#CC(C)(C)N(C)C)CC3)C(=O)N3CCCC(N3)C(=O)OCC(C)(C)C2)C1	%	88.8
O=C(c1ccc(F)c(F)c1Nc1ccc(I)cc1F)N1CC(O)([C@@H]2CCCCN2)C1 + CCn1c(-c2cccnc2C(C)OC)c2c3cc(ccc31)N1CCOC(CC(NC(=O)C(C(C)C)N(C)C(=O)C3(F)CCN(C(=O)C#CC(C)(C)N(C)C)CC3)C(=O)N3CCCC(N3)C(=O)OCC(C)(C)C2)C1	%	78.4
C=CC(=O)N1CCN(c2nc(OCC3CCCN3C)nc3c(F)c(-c4nc(N)cc(C)c4C(F)(F)F)c(Cl)cc23)C(C)C1 (centres undefined) + CCn1c(-c2cc(N3CCN(C)CC3)cnc2C(C)OC)c2c3cc(ccc31)-c1csc(n1)CC(NC(=O)C1CC1C)C(=O)N1CCCC(N1)C(=O)OCC(C)(C)C2	%	35.6

Entry CCN1CCN(Cc2ccc(Nc3ncc(F)c(-c4cc(F)c5nc(C)n(C(C)C)c5c4)n3)nc2)CC1 + CCn1c(-c2cc(N3CCN(C)CC3)cnc2C(C)OC)c2c3cc(ccc31)-c1csc(n1)CC(NC(=O)C1CC1C)C(=O)N1CCCC(N1)C(=O)OCC(C)(C)C2 , viability, T/C reported as 27.4

====

Test system: 485368-065-R3-J5-PDC spheroids with HUVEC/MSC, viability
Assay: Anticancer human tumor 485368-065-R3-J5-PDC cell line growth inhibition [RAS]; active = viability on the fitted dose curve at most 10% of control; inactive = the rest;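 further: spheroids exposed to agents for seven days before readout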
Details: second compound 0.3 µM; first compound 10 µM
Please answer using one outcome listed in active, inactive

COMPOUND	CATEGORY LABEL
CC1(O)CCCC1n1c(=O)c(C(F)F)cc2cnc(NC3CCN(S(C)(=O)=O)CC3)nc21 (centres undefined) + CCn1c(-c2cccnc2C(C)OC)c2c3cc(ccc31)N1CCOC(CC(NC(=O)C(C(C)C)N(C)C(=O)C3(F)CCN(C(=O)C#CC(C)(C)N(C)C)CC3)C(=O)N3CCCC(N3)C(=O)OCC(C)(C)C2)C1	inactive

Qu. Test call for this compound, please: CC(Nc1ccc2c(c1)OCCn1cc(N3C(=O)OCC3C(F)F)nc1-2)C(N)=O (centres undefined) + CCn1c(-c2cc(N3CCN(C)CC3)cnc2C(C)OC)c2c3cc(ccc31)-c1csc(n1)CC(NC(=O)C1CC1C)C(=O)N1CCCC(N1)C(=O)OCC(C)(C)C2
Ans. active

Qu. Test call for this compound, please: C[C@@H](NC(=O)c1ncnc(N)c1Cl)c1ncc(C(=O)Nc2cc(C(F)(F)F)c(Cl)cn2)s1 + CCn1c(-c2cc(N3CCN(C)CC3)cnc2C(C)OC)c2c3cc(ccc31)-c1csc(n1)CC(NC(=O)C1CC1C)C(=O)N1CCCC(N1)C(=O)OCC(C)(C)C2
Ans. inactive

Qu. Test call for this compound, please: CC(C)NCC(C(=O)N1CCN(c2ncnc3c2C(C)CC3O)CC1)c1ccc(Cl)cc1 (centres undefined) + CCn1c(-c2cccnc2C(C)OC)c2c3cc(ccc31)N1CCOC(CC(NC(=O)C(C(C)C)N(C)C(=O)C3(F)CCN(C(=O)C#CC(C)(C)N(C)C)CC3)C(=O)N3CCCC(N3)C(=O)OCC(C)(C)C2)C1
Ans. inactive

====

Tested on: 485368-065-R3-J5-PDC spheroids with HUVEC/MSC, viability
Test: Anticancer human tumor 485368-065-R3-J5-PDC cell line growth inhibition [RAS];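 further: spheroids exposed to agents for seven days before readout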
Details: compound 1 µM; stronger effect = lower value
Attribute: viability, T/C

Past entries and their recorded results:
MOLECULE	MEASUREMENT LABEL	OBSERVED
C#Cc1c(F)ccc2cc(O)cc(-c3ncc4c(N5CC6CCC(C5)N6)nc(OCC56CCCN5CC(F)C6)nc4c3F)c12 (stereo not drawn)	viability, T/C	99.4% [middle of 8 runs]
C=CC(=O)N1CCN(c2nc(OCC3CCCN3C)nc3c(F)c(-c4nc(N)cc(C)c4C(F)(F)F)c(Cl)cc23)C(C)C1 (stereo not drawn)	viability, T/C	101% [middle of 13 runs]
C=CC(=O)Nc1cc(Nc2nccc(-c3cn(C)c4ccccc34)n2)c(OC)cc1N(C)CCN(C)C	viability, T/C	97.5% [middle of 4 runs]
CC(C)NCC(C(=O)N1CCN(c2ncnc3c2C(C)CC3O)CC1)c1ccc(Cl)cc1 (stereo not drawn)	viability, T/C	86.2% [middle of 4 runs]
O=C(c1ccc(F)c(F)c1Nc1ccc(I)cc1F)N1CC(O)([C@@H]2CCCCN2)C1	viability, T/C	11.3% [middle of 4 runs]

Entry CC(=O)OC12COC1CC(O)C1(C)C(=O)C(O)C3=C(C)C(OC(=O)C(O)C(NC(=O)OC(C)(C)C)c4ccccc4)CC(O)(C(OC(=O)c4ccccc4)C21)C3(C)C (stereo not drawn) , viability, T/C reported as 16.1% [middle of 4 runs]

Entry Cc1nc(N2CCC3(CC2)COC(C)C3N)c(CO)nc1Sc1ccnc(N)c1Cl (stereo not drawn) , viability, T/C reported as 72.8% [middle of 4 runs]

Entry CCN1CCN(Cc2ccc(Nc3ncc(F)c(-c4cc(F)c5nc(C)n(C(C)C)c5c4)n3)nc2)CC1 , viability, T/C reported as 45.4% [middle of 4 runs]

====

Attribute: viability, T/C
Tested on: 485368-065-R3-J5-PDC spheroids with HUVEC/MSC, viability
Assay: Anticancer human tumor 485368-065-R3-J5-PDC cell line growth inhibition [RAS];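 further: spheroids exposed to agents for seven days before readout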
Details: second compound 0.00949 µM; first compound 10 µM; stronger effect = lower value

COMPOUND	MEASUREMENT LABEL	OBSERVED
CC1(O)CCCC1n1c(=O)c(C(F)F)cc2cnc(NC3CCN(S(C)(=O)=O)CC3)nc21 (stereo not drawn) + CCn1c(-c2cc(N3CCN(C)CC3)cnc2C(C)OC)c2c3cc(ccc31)-c1csc(n1)CC(NC(=O)C1CC1C)C(=O)N1CCCC(N1)C(=O)OCC(C)(C)C2	viability, T/C	8.01%

Entry Cc1nc(N2CCC3(CC2)COC(C)C3N)c(CO)nc1Sc1ccnc(N)c1Cl (stereo not drawn) + CCn1c(-c2cc(N3CCN(C)CC3)cnc2C(C)OC)c2c3cc(ccc31)-c1csc(n1)CC(NC(=O)C1CC1C)C(=O)N1CCCC(N1)C(=O)OCC(C)(C)C2 , viability, T/C reported as 2.44%

====

Test system: 485368-065-R3-J5-PDC spheroids with HUVEC/MSC, viability
Assay: Anticancer human tumor 485368-065-R3-J5-PDC cell line growth inhibition [RAS];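 further: spheroids exposed to agents for seven days before readout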
Conditions: second compound 0.000949 µM; first compound 0.00949 µM; stronger effect = lower value
Attribute: viability, T/C
Value expressed in %; do not type the unit.

Past entries and their recorded results:
COMPOUND	OBSERVED
CC1(C)CCC(Nc2ncc(C(F)(F)F)c(-c3c[nH]c4c(P(C)(C)=O)c(C#N)ccc34)n2)CN1 (centres undefined) + CCn1c(-c2cccnc2C(C)OC)c2c3cc(ccc31)N1CCOC(CC(NC(=O)C(C(C)C)N(C)C(=O)C3(F)CCN(C(=O)C#CC(C)(C)N(C)C)CC3)C(=O)N3CCCC(N3)C(=O)OCC(C)(C)C2)C1	48
CC1(C)CCC(Nc2ncc(C(F)(F)F)c(-c3c[nH]c4c(P(C)(C)=O)c(C#N)ccc34)n2)CN1 (centres undefined) + CCn1c(-c2cc(N3CCN(C)CC3)cnc2C(C)OC)c2c3cc(ccc31)-c1csc(n1)CC(NC(=O)C1CC1C)C(=O)N1CCCC(N1)C(=O)OCC(C)(C)C2	26.8
CCc1c2c(nc3ccc(O)cc13)-c1cc3c(c(=O)n1C2)COC(=O)[C@]3(O)CC + CCn1c(-c2cccnc2C(C)OC)c2c3cc(ccc31)N1CCOC(CC(NC(=O)C(C(C)C)N(C)C(=O)C3(F)CCN(C(=O)C#CC(C)(C)N(C)C)CC3)C(=O)N3CCCC(N3)C(=O)OCC(C)(C)C2)C1	17

Please examine the following record next.
Entry CCc1c2c(nc3ccc(O)cc13)-c1cc3c(c(=O)n1C2)COC(=O)[C@]3(O)CC + CCn1c(-c2cc(N3CCN(C)CC3)cnc2C(C)OC)c2c3cc(ccc31)-c1csc(n1)CC(NC(=O)C1CC1C)C(=O)N1CCCC(N1)C(=O)OCC(C)(C)C2 , viability, T/C reported as 12.3
